Hello, the source for this data is patent US6906205B2, in case you need it.

- System: ANKA strain of P. berghei
- EXPERIMENT: single dose STI in vivo screen in infected mice
- Parameters: species or system Plasmodium berghei
- EXPERIMENTAL_PARAMETERS: single 10 mg/kg sc in 3% ethanol and 7% Tween 80; untreated control 5.6 ± 0.3
PROPERTY_LABEL: Survival (days) sc
Report the figure in days without appending any unit label.

Before answering, review these 5 worked examples.
-- ask Please report the measured Survival (days) sc for C1CCN(C2CCC3(CC2)OOC2(O3)C3CC4CC(C3)CC2C4)CC1 (centres unmarked) [OZ159]
-- reply 9.0

-- ask Please report the measured Survival (days) sc for CC(=O)OCC(=O)N1CCC2(CC1)OOC1(O2)C2CC3CC(C2)CC1C3 (centres unmarked) [OZ82]
-- reply 7.0

-- ask Please report the measured Survival (days) sc for Fc1c(F)c(F)c(C2(c3c(F)c(F)c(F)c(F)c3F)OOC3(O2)C2CC4CC(C2)CC3C4)c(F)c1F (centres unmarked) [OZ45]
-- reply 5.0

-- ask Please report the measured Survival (days) sc for CC(C)(C)NC(=O)N[C@H]1CC[C@]2(CC1)OOC1(O2)C2CC3CC(C2)CC1C3 (some centres unmarked) [OZ222]
-- reply 10.0

-- ask Please report the measured Survival (days) sc for O=C(N1CCCC1)N1CCC2(CC1)OOC1(O2)C2CC3CC(C2)CC1C3 (centres unmarked) [OZ203]
-- reply 9.7

Next:
-- ask Please report the measured Survival (days) sc for O=C(O)c1ccccc1C(=O)N1CCC2(CC1)OOC1(O2)C2CC3CC(C2)CC1C3 (centres unmarked) [OZ132]
-- reply 6.3

-- ask Please report the measured Survival (days) sc for CC(C)(O)C[C@H]1CC[C@]2(CC1)OOC1(O2)C2CC3CC(C2)CC1C3 (some centres unmarked) [OZ205]
-- reply 9.7

-- ask Please report the measured Survival (days) sc for O=C(C[C@H]1CC[C@]2(CC1)OOC1(O2)C2CC3CC(C2)CC1C3)N1CCN(c2ccccc2)CC1 (some centres unmarked) [OZ244]
-- reply 6.3
